Biological target: Biotinylated SARS-CoV-2 spike S1 protein (SARS-CoV-2, Wuhan, UniProt P0DTC2, biotin (biotinylated))
Assay: SPR
Quantity Name: binding result

Binder: mAb21 (S2A4) (antibody, V domains shown) VH: EVQLVESGGGLVQPGGSLRLSCAASGFTFSSYWMNWVRQAPGKGLEWVANIKQDGSEKYYVDSVKGRFTISRDNAKNSLFLQMNSLRAEDTAVYYCARVWWLRGSFDYWGQGTLVTVSS VL: NFMLTQPHSVSESPGKTVTISCTGSSGSIASNYVQWYQQRPGSAPTTVIYEDNQRPSGVPDRFSGSIDSSSNSASLTISGLKTEDEADYYCQSYDSSNHVVFGGGTKLTVL
Result: binds
//
Binder: mAb18 (CV07-250) (antibody, V domains shown) VH: QVQLVQSEAEVKEPGASVEVSCKASGYNFTNFAISWVRQAPGQGLEWMGWISGYNGDTNSAQKFLGRVTMTTDTSTTTAYMELRSLRSDDTAVYYCAGSDNYGFPYNGMDVWGQGTTVTVFN VL: QSALTQPPSASGSPGQSVTISCTGTSSDLGAYHFVTWYQHYPGKAPKVMIYGVRKRPSGVPDRFSGSKSGNTASLTVSGLQDEDEADYYCSSYAGNNDFVFGGGTKLTVL
Result: binds
